System: CAF#7 (primary prostate cancer-associated fibroblasts of myCAF-like type)
Assay: drug sensitivity score (DSS2, normalised partial AUC of dose-response, 72 h CellTiter-Glo viability) (DSS (dimensionless)); higher = more sensitive (stronger growth inhibition / cytotoxicity); extreme values may be limits of the assay
Quick rule for you: drug sensitivity score at 5 or higher means Yes, lower means No.

Known results for molecules:
>  <molecule>
C[C@@H](NC(=O)c1ncnc(N)c1Cl)c1ncc(C(=O)Nc2cc(C(F)(F)F)c(Cl)cn2)s1 [TAK-580] (tested concentration range 1-10000 nM)

>  <classAssignment>
No

$$$$
>  <molecule>
CC(C)(C)c1cc(NC(=O)Nc2ccc(-c3cn4c(n3)sc3cc(OCCN5CCOCC5)ccc34)cc2)no1 [Quizartinib] (tested concentration range 0.1-1000 nM)

>  <classAssignment>
No

$$$$
>  <molecule>
CS(=O)(=O)N1CCN(Cc2cc3nc(-c4cccc5[nH]ncc45)nc(N4CCOCC4)c3s2)CC1 [Pictilisib] (tested concentration range 1-10000 nM)

>  <classAssignment>
Yes

$$$$
>  <molecule>
CC(C)c1c(C(=O)Nc2ccccc2)c(-c2ccccc2)c(-c2ccc(F)cc2)n1CC[C@@H](O)C[C@@H](O)CC(=O)O [Atorvastatin] (tested concentration range 1-10000 nM)

>  <classAssignment>
Yes

$$$$
>  <molecule>
COc1cc2ncnc(Nc3cccc(Cl)c3F)c2cc1OC(=O)N1CCN(C)C[C@H]1C [AZD3759] (tested concentration range 0.1-1000 nM)

>  <classAssignment>
No

$$$$

Prompt line: Item CN1CC[C@H](c2c(O)cc(O)c3c(=O)cc(-c4ccccc4Cl)oc23)[C@H](O)C1 [Alvocidib] (tested concentration range 1-10000 nM) with drug sensitivity score of 5 or above?
Response line: Yes

Prompt line: Item COc1cccc2c1C(=O)c1c(O)c3c(c(O)c1C2=O)C[C@@](O)(C(=O)CO)C[C@@H]3O[C@H]1C[C@H](N)[C@@H](O)[C@H](C)O1 [Epirubicin] (tested concentration range 0.1-1000 nM) with drug sensitivity score of 5 or above?
Response line: Yes

Prompt line: Item O=C(O)CC[C@H]1CC[C@@](c2cc(F)ccc2F)(S(=O)(=O)c2ccc(Cl)cc2)CC1 [MK-0752] (tested concentration range 0.1-1000 nM) with drug sensitivity score of 5 or above?
Response line: No

Prompt line: Item N.N.[Cl][Pt][Cl] [Cisplatin] (tested concentration range 10-100000 nM) with drug sensitivity score of 5 or above?
Response line: No

Prompt line: Item Nc1cc(F)ccc1NC(=O)c1ccc(CNC(=O)/C=C/c2cccnc2)cc1 [Tucidinostat] (tested concentration range 1-10000 nM) with drug sensitivity score of 5 or above?
Response line: No
